Molecular target: T1, recombinant human CD14 (B294801, histidine tagged) (Homo sapiens, UniProt P08571)
T1 construct: His; purchased Shanghai BaiYing Biotechnology Co., Ltd B294801 (Batch number 20200518A22)
T1 sequence (P08571 20-345): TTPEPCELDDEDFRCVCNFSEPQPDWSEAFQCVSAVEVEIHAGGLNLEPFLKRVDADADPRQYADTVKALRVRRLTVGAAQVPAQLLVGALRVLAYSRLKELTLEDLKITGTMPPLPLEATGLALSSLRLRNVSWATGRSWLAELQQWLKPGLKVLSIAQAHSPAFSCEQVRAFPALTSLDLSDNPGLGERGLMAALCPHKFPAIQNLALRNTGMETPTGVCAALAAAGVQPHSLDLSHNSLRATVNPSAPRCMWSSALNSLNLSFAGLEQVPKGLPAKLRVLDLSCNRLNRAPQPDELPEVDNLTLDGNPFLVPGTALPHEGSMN
Assay: Biacore 8K kinetic and affinity test of humanized antibodies (Example 8)
Assay type: binding
Settings: relative to mouse antibody D6DD3D001
MEASURED PARAMETER: Change Factor (ratio of KD of the humanized to mouse antibody)

Measured Change Factor (ratio of KD of the humanized to mouse antibody) of D6DD3D010: humanized anti-CD14 antibody; VH SEQ ID NO: 37, VL SEQ ID NO: 39 (antibody, V domains shown) VH: QVQLQESGPGLVKPSETLSLTCTVSGYSITSDSAWNWIRQPPGKGLEWIGYISYSGSTSYNPSLKSRVTISRDTSKNQFSLKLSSVTAADTAVYYCVRGLRFAYWGQGTLVTVSS VL: DIVLTQSPDSLAVSLGERATINCRASESVDSYVNSFLHWYQQKPGQPPKLLIYRASNLQSGVPDRFSGSGSRTDFTLTISSLQAEDVAVYYCQQSNEDPYTFGQGTKLEIK : 1.14
